assay: self-splicing fitness, log relative to wild type (ln ratio); higher = more splicing; Tetrahymena group I intron in knt gene, E. coli kanamycin selection, DiMSum; sequences stand for … in CUCUCU…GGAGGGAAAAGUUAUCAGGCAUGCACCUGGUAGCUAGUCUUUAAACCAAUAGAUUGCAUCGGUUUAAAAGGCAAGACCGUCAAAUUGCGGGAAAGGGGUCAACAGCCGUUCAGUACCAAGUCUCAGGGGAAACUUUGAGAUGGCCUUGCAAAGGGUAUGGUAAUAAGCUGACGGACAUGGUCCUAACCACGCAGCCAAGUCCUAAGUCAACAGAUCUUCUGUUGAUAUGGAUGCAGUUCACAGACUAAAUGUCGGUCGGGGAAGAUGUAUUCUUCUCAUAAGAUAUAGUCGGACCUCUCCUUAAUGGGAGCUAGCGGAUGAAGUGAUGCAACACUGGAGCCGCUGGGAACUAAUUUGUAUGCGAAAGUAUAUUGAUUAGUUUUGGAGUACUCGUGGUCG; conditions: 30 °C;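 also: selection with 25 µg/mL kanamycin versus none on LB agar overnight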
Output: class label from self-splicing fitness (ln). Mapping: label 0 = under -3, label 1 = from -3 up to -1, label 2 = -1 and over

Worked set:
>  <Sequence record>
UGGCAGCAAUAUUACGAACU

>  <Label class>
label 1

$$$$
>  <Sequence record>
UCUCAGCAAUAUUACGCAUU

>  <Label class>
label 2

$$$$
>  <Sequence record>
CCUUAGCAAUAUUACGUUGU

>  <Label class>
label 0

$$$$

Quick check: band for AUAAAGCAAUAUUACGGUAU
label 2

For UCUUAGCAAUAUUACGUCUA then?
label 0

For CCUCAGCAAUAUUACGUCGG then?
label 0

----------
Each entry below carries its recorded self-splicing fitness (ln).
assay: self-splicing fitness, log relative to wild type (ln ratio); higher = more splicing; Tetrahymena group I intron in knt gene, E. coli kanamycin selection, DiMSum; sequences stand for … in CUCUCU…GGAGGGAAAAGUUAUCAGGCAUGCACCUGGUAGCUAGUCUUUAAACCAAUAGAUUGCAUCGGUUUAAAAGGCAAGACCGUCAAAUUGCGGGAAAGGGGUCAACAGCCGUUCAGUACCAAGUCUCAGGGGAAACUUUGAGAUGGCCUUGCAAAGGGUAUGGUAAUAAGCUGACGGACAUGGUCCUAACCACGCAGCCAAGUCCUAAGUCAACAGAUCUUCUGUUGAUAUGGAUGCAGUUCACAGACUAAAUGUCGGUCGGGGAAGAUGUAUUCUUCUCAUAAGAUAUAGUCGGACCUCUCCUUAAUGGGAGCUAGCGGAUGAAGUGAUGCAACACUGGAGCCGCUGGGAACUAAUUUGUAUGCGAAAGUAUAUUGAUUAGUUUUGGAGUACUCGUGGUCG; conditions: 30 °C
Give your answer as a number; write no unit.

The cases that follow already have their self-splicing fitness (ln) on record.
>  <Sequence record>
ACUUAGCAAUAUUACGGCUA

>  <self-splicing fitness (ln)>
-2.6

$$$$
>  <Sequence record>
UCAGAGCAAUAUUACGGCGA

>  <self-splicing fitness (ln)>
-0.324

$$$$
>  <Sequence record>
GUCUAGCAAUAUUACGCCGA

>  <self-splicing fitness (ln)>
-1.65

$$$$
>  <Sequence record>
GCAAAGCAAUAUUACGCGUA

>  <self-splicing fitness (ln)>
-0.985

$$$$
>  <Sequence record>
CGUAAGCAAUAUUACGCGCU

>  <self-splicing fitness (ln)>
-2.03

$$$$
>  <Sequence record>
CAAGAGCAAUAUUACGGAAC

>  <self-splicing fitness (ln)>
-3.74

$$$$
>  <Sequence record>
CUUUAGCAAUAUUACGUGCA

>  <self-splicing fitness (ln)>
-2.93

$$$$
>  <Sequence record>
CUCAAGCAAUAUUACGACGG

>  <self-splicing fitness (ln)>
-0.942

$$$$
>  <Sequence record>
AAUCAGCAAUAUUACGUUCA

>  <self-splicing fitness (ln)>
-1.2

$$$$
>  <Sequence record>
UAGCAGCAAUAUUACGUACC

>  <self-splicing fitness (ln)>
-1.91

$$$$

Sample UUAAAGCAAUAUUACGCCGC — what was its self-splicing fitness (ln)?
-2.1

For GGGCAGCAAUAUUACGGUGC then?
-2.21

For ACUAAGCAAUAUUACGAAGG then?
-1.51

For GCGCAGCAAUAUUACGACUA then?
-0.643

For UGAUAGCAAUAUUACGACCG then?
0.139

For GGGAAGCAAUAUUACGGGAG then?
-3.28

For AUCAAGCAAUAUUACGGCCU then?
-0.508

For UAAGAGCAAUAUUACGUGGG then?
-3.82

For CCACAGCAAUAUUACGAGCC then?
-3.22
